The compounds listed here are annotated with their IC50.
- Test Target: Human PD-L1/PD-1 (Homo sapiens)
- Construct: made in house; host or cells: HEK293T
- Sequence (Q9NZQ7 with tags, fused parts or gaps): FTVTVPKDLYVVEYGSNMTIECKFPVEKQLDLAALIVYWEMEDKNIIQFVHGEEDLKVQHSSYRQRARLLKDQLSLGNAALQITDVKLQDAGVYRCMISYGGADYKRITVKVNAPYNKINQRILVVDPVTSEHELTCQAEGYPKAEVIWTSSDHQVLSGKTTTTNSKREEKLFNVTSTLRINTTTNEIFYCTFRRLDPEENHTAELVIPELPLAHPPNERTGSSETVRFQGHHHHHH
- Method: HTRF PD-1-Ig/PD-L1-His binding assay (human PD-L1)
- Assay Conditions: cluster symbol; read-out: HTRF IC50 cluster
Positions of bridges follow the written chain, without caps; N, C: chain ends. Non-standard residues stand in square brackets, D forms with d. Residues, ends and D or L forms follow the SMILES beside them. ξ: configuration not given here. Phe(4-F) = N[C@@H](Cc1ccc(F)cc1)C(=O)O; Bta = N[C@@H](Cc1csc2ccccc12)C(=O)O; Hyp = O=C(O)[C@@H]1C[C@@H](O)CN1; NMeF = CN[C@@H](Cc1ccccc1)C(=O)O; NMeNle = CCCC[C@H](NC)C(=O)O; NMeA = CN[C@@H](C)C(=O)O; Orn = NCCC[C@H](N)C(=O)O; ξC = NC(CS)C(=O)O; Sar = CNCC(=O)O

These solved cases illustrate the format of a correct answer.
CCCC[C@H]1C(=O)N2CCC[C@@H]2C(=O)N[C@@H](CCCN)C(=O)N[C@H](C(=O)NCC(N)=O)CSCC(=O)N[C@@H](Cc2ccc(O)cc2)C(=O)N(C)[C@@H](C)C(=O)N[C@@H](CC(N)=O)C(=O)N2CCC[C@H]2C(=O)N[C@@H](Cc2cnc[nH]2)C(=O)N[C@@H](CC(C)C)C(=O)N2CCC[C@H]2C(=O)N[C@@H](Cc2c[nH]c3ccccc23)C(=O)N[C@@H](CO)C(=O)N[C@@H](Cc2csc3ccccc23)C(=O)N1C [Example 5010] ({CH2CO}-Y[NMeA]NPHLPWS[Bta][NMeNle][dP][Orn]CG-NH2; thioether N-14)
6.76 to 30.3 nM
CCCC[C@H]1C(=O)N(C)CC(=O)N[C@@H](CC(=O)O)C(=O)N[C@@H](C(C)C)C(=O)N(C)[C@@H](Cc2ccccc2)C(=O)N[C@@H](Cc2ccc(O)cc2)C(=O)N(C)CC(=O)N[C@@H](Cc2c[nH]c3ccccc23)C(=O)N[C@@H](Cc2ccc(F)cc2)C(=O)N[C@@H](CC(C)C)C(=O)N[C@H](C(=O)NCC(N)=O)CSCC(=O)N[C@@H](Cc2ccccc2)C(=O)N(C)[C@@H](Cc2ccccc2)C(=O)N1C [Example 3076] ({CH2CO}-F[NMeF][NMeNle][Sar]DV[NMeF]Y[Sar]W[Phe(4-F)]LCG-NH2; thioether N-13)
0.385 to 6.74 nM
CCCC[C@H]1C(=O)N(C)[C@@H](CCCC)C(=O)N[C@@H](CCCN)C(=O)N[C@H](C(=O)NCC(N)=O)CSCC(=O)N[C@@H](Cc2ccc(O)cc2)C(=O)N(C)[C@@H](C)C(=O)N[C@@H](CC(N)=O)C(=O)N2CCC[C@H]2C(=O)N[C@@H](Cc2cnc[nH]2)C(=O)N[C@@H](CC(C)C)C(=O)N2C[C@H](O)C[C@H]2C(=O)N[C@@H](Cc2c[nH]c3ccccc23)C(=O)N[C@@H](CO)C(=O)N[C@@H](Cc2c[nH]c3ccccc23)C(=O)N1C
0.385 to 6.74 nM

Enquiry: I am curious: what IC50 value has been reported for CCCC[C@H]1C(=O)N(C)[C@@H](CCCC)C(=O)N[C@@H](CO)C(=O)N[C@H](C(=O)NCC(N)=O)CSCC(=O)N[C@@H](Cc2ccc(O)cc2)C(=O)N(C)[C@@H](C)C(=O)N[C@@H](CO)C(=O)N2CCC[C@H]2C(=O)N[C@@H](CO)C(=O)N[C@@H](CC(C)C)C(=O)N2C[C@H](O)C[C@H]2C(=O)N[C@@H](Cc2c[nH]c3ccccc23)C(=O)N[C@@H](CO)C(=O)N[C@@H](Cc2c[nH]c3ccccc23)C(=O)N1C [Example 5116] ({CH2CO}-Y[NMeA]SPSL[Hyp]WSW[NMeNle][NMeNle]SCG-NH2; thioether N-14) ?
Return: 0.385 to 6.74 nM

Enquiry: Tell me the measured IC50 of CCCC[C@H]1C(=O)N(C)[C@@H](CCCC)C(=O)N[C@@H](CC(C)C)C(=O)N[C@H](C(=O)NCC(N)=O)CSCC(=O)N[C@@H](Cc2ccc(O)cc2)C(=O)N(C)[C@@H](C)C(=O)N[C@@H](CC(N)=O)C(=O)N2CCC[C@H]2C(=O)NCC(=O)N[C@@H](CCC(N)=O)C(=O)N2C[C@H](O)C[C@H]2C(=O)N[C@@H](Cc2c[nH]c3ccccc23)C(=O)N[C@@H](CO)C(=O)N[C@@H](Cc2c[nH]c3ccccc23)C(=O)N1C [Example 5127] ({CH2CO}-Y[NMeA]NPGQ[Hyp]WSW[NMeNle][NMeNle]LCG-NH2; thioether N-14) , please.
Return: 0.385 to 6.74 nM

Enquiry: Reported IC50 for CCCC[C@H]1C(=O)N(C)[C@@H](CCCC)C(=O)N[C@@H](CCCNC(=N)N)C(=O)N[C@@H](C(=O)NCC(N)=O)CSCC(=O)N[C@@H](Cc2cnc[nH]2)C(=O)N(C)[C@@H](C)C(=O)N[C@@H](CC(N)=O)C(=O)N2CCC[C@H]2C(=O)N[C@@H](Cc2cnc[nH]2)C(=O)N[C@@H](CC(C)C)C(=O)N(C)CC(=O)N[C@@H](Cc2c[nH]c3ccccc23)C(=O)N[C@@H](CO)C(=O)N[C@@H](Cc2c[nH]c3ccccc23)C(=O)N1C [Example 1072] ({CH2CO}-H[NMeA]NPHL[Sar]WSW[NMeNle][NMeNle]R[dC]G-NH2; thioether N-14) : what is it?
Return: > 30.5 nM

Enquiry: For the compound shown here, CCCC[C@H]1C(=O)N(C)[C@@H](CCCC)C(=O)N[C@@H](CCCNC(=N)N)C(=O)NC(C(=O)NCC(N)=O)CSCC(=O)N[C@@H](Cc2ccc(O)cc2)C(=O)N(C)[C@@H](C)C(=O)N[C@@H](CC(N)=O)C(=O)N2CCC[C@H]2C(=O)N[C@@H](Cc2cnc[nH]2)C(=O)N[C@@H](CC(N)=O)C(=O)N2CCC[C@H]2C(=O)N[C@@H](Cc2c[nH]c3ccccc23)C(=O)N[C@@H](CO)C(=O)N[C@@H](Cc2c[nH]c3ccccc23)C(=O)N1C (some centres unmarked) [Example 9063] ({CH2CO}-Y[NMeA]NPHNPWSW[NMeNle][NMeNle]R[ξC]G-NH2; thioether N-14) , give the reported IC50.
Return: 0.385 to 6.74 nM

Enquiry: Which IC50 is reported for this compound? CCCC[C@H]1C(=O)N(C)[C@@H](CCSC)C(=O)N[C@@H](CCCNC(=N)N)C(=O)NC(C(=O)NCC(N)=O)CSCC(=O)N[C@@H](Cc2ccc(O)cc2)C(=O)N(C)[C@@H](C)C(=O)N[C@@H](CC(N)=O)C(=O)N2CCC[C@H]2C(=O)N[C@@H](Cc2cnc[nH]2)C(=O)N[C@@H](CC(C)C)C(=O)N2C[C@H](O)C[C@H]2C(=O)N[C@@H](Cc2c[nH]c3ccccc23)C(=O)N[C@@H](CO)C(=O)N[C@@H](Cc2c[nH]c3ccccc23)C(=O)N1C (some centres unmarked)
Return: 0.385 to 6.74 nM
